# maps each entry to its GI50
# Test system: HCC 2998
# Procedure text: NCI tumour cell line growth inhibition, 48 h
Calls of active or inactive are those of the source. Rule as the data show it: active = GI50 up to about 1.1 µM and inactive = higher.
Outcome measure: GI50

[[record]]
compound = "CCOC(=O)C(C)c1nc2cc(C(F)(F)F)ccc2[nH]c1=O (stereo not given)"
meas_value = "> 100 µM (inactive)"

[[record]]
compound = "O[C@@]12Cc3c([nH]c4ccccc34)[C@@H]3Oc4cccc5c4[C@@]31CCN(CC1CC1)[C@@H]2C5"
meas_value = "17.7 µM (inactive)"

[[record]]
compound = "CCC(c1ccccc1)c1cc(C(C)(C)C)cc(C(C)(C)C)c1O (stereo not given)"
meas_value = "15.8 µM (inactive)"

[[record]]
compound = "N#CCC(=O)N/N=C1/C(=O)NC(=O)C(=O)C1c1nc2ccccc2s1 (stereo not given)"
meas_value = "> 100 µM (inactive)"

[[record]]
compound = "O=C(CC(O)(C(F)(F)F)C(F)(F)F)c1cccs1"
meas_value = "> 10 µM (inactive)"

[[record]]
compound = "O=C(Nc1cccc(O)c1)C(=O)C(C(=O)c1ccccc1F)C1OC(=O)c2ccccc21 (stereo not given)"
meas_value = "22.2 µM (inactive)"

[[record]]
compound = "CNc1ccc2c(c1)Cc1ccccc1-2"
meas_value = "30.6 µM (inactive)"

[[record]]
compound = "COc1ccc([N+](=O)[O-])c2c(NCC(O)CO)ccnc12 (stereo not given)"
meas_value = "32.2 µM (inactive)"

[[record]]
compound = "COc1ccc2c(c1)nc1n2C(c2c(F)cccc2F)SC1 (stereo not given)"
meas_value = "55.1 µM (inactive)"

[[record]]
compound = "CC1(C)CNC(c2ccc3c(c2)Cc2cc(C4=NC(C)(C)CN4)ccc2-3)=N1"
meas_value = "26.2 µM (inactive)"

[[record]]
compound = "Nc1nc2c(ncn2Cc2ccccc2CCO)c(=O)[nH]1"
meas_value = "> 100 µM (inactive)"

[[record]]
compound = "O=C1NC2(CCN(CCCC3(c4ccc(F)cc4)OCCO3)CC2)Oc2ccccc21"
meas_value = "> 100 µM (inactive)"

[[record]]
compound = "CC1(C)C(=O)C(C)(C)C1=S"
meas_value = "> 100 µM (inactive)"

[[record]]
compound = "CSc1ncc2c(n1)sc1c(=O)n(-c3ccccc3)cnc12"
meas_value = "> 100 µM (inactive)"

[[record]]
compound = "CC1=CC(C)C(O)C(C)/C=C\\C(O)C/C=C(/C)C(=O)CC(O)C(C)\\C=C/C=C\\C=C/C(=O)NC2=C(O)C(=O)c3c(cc(C)c(O)c3C1=O)C2=O (stereo not given)"
meas_value = "86.1 µM (inactive)"

[[record]]
compound = "C[C@H]1CN[C@@H]2[C@@H](C)[C@H]3[C@@H](C[C@H]4[C@@H]5CC[C@H]6C[C@@H](N)CC[C@]6(C)[C@H]5CC[C@]34C)O[C@@]2(O)C1"
meas_value = "1.8 µM (inactive)"

[[record]]
compound = "Cc1ccnc(NC(NC(=O)c2ccccc2)(C(F)(F)F)C(F)(F)F)c1"
meas_value = "> 100 µM (inactive)"

[[record]]
compound = "Cc1ccc(SC(C)/C=C/NNC2=NN=C(c3ccccc3)C(c3ccccc3)N2)cc1 (stereo not given)"
meas_value = "28 µM (inactive)"

[[record]]
compound = "Clc1ccc(COC(Cn2ccnc2)c2ccc(Cl)cc2Cl)cc1 (stereo not given)"
meas_value = "14.6 µM (inactive)"

[[record]]
compound = "COC1C(OC(=O)/C=C/C=C/C=C/C=C/C(=O)O)CCC2(CO2)C1C1(C)OC1CC=C(C)C (stereo not given)"
meas_value = "26 µM (inactive)"


###

# System: SN12C
# Procedure text: NCI tumour cell line growth inhibition, 48 h
Activity calls are given as the source filed them. No stated cut-off is given here; in the data, active = GI50 up to about 1.1 µM and inactive = higher. Where a SMILES comes first, the peptide text is derived from it. [ ]: non-standard residue; d: D form. Ac5c = NC1(C(=O)O)CCCC1
Possible outcomes: T (active), F (inactive)

[[record]]
molecule = "CC1(C#N)CC(C)(C)C(/C=C2/CC(C)(C)C(/C=C3/OC(=N)CC3(C)C)=N2)=N1 (centres undefined)"
classification = "F"

[[record]]
molecule = "CC1=CC(C)C(O)C(C)/C=C\\C(O)C/C=C(/C)C(=O)CC(O)C(C)\\C=C/C=C\\C=C/C(=O)NC2=C(O)C(=O)c3c(cc(C)c(O)c3C1=O)C2=O (centres undefined)"
classification = "F"

[[record]]
molecule = "CC1=CC(C)C(C)N(CCNC(=O)Nc2ccccc2)c2ccccc21 (centres undefined)"
classification = "F"

[[record]]
molecule = "CC(C)(C)c1cc(-c2cc(C(C)(C)C)n(-c3ccccc3)n2)nn1-c1ccccc1"
classification = "F"

[[record]]
molecule = "O=C1NC(c2ccc(O)cc2)C2CCC1C2 (centres undefined)"
classification = "F"

[[record]]
molecule = "Brc1ccc(/N=N/N2CCCC2)cc1"
classification = "F"

[[record]]
molecule = "O=C(C(=O)N1CC2C=CC1CC2)c1c[nH]c2ccccc12 (centres undefined)"
classification = "F"

[[record]]
molecule = "CC(=O)OC1(C)CC(C)C(=O)C(C(O)CC2CC(=O)NC(=O)C2)C1 (centres undefined)"
classification = "T"

[[record]]
molecule = "CCCCCCCC1c2cc3nc(cc4[nH]c(cc5nc(cc([nH]2)[C@@]1(C)CC(=O)N(C)C)C(C)=C5CCC(=O)O)c(CCC(=O)O)c4C)C=C3C (some centres undefined)"
classification = "F"

[[record]]
molecule = "O=C(O)CCC[C@]1(O)O[C@@]2(CCCC2=O)[C@]2(O)CCC[C@@]21O"
classification = "F"

[[record]]
molecule = "Nc1ccc(Sc2nnc(N)s2)cc1"
classification = "F"

[[record]]
molecule = "CN(C)CCn1c(=O)c2ccc(NCCNCCO)c3c(=O)c4cc(O)ccc4n(c1=O)c23"
classification = "T"

[[record]]
molecule = "CC1=CC(N2C(=O)C(C)=CC2O)NC1=O (centres undefined)"
classification = "F"

[[record]]
molecule = "N#CCCN(C(=O)Nc1ccccc1)[C@H]1CCCC[C@@H]1N(C(=O)Nc1ccccc1)c1ccccc1"
classification = "F"

[[record]]
molecule = "Cc1cc(CC(=O)NCCO)n(CCO)c(=O)c1"
classification = "F"

[[record]]
molecule = "O=c1[nH]c2nc3ccccc3c(=O)n2/c1=C/c1ccc(Cl)cc1"
classification = "F"

[[record]]
molecule = "COC1=CC(=O)c2c(O)c3c(c(O)c2C1=O)CC(C)(O)OC3 (centres undefined)"
classification = "F"

[[record]]
molecule = "O=C(NCCCN(CCCCN(CCCNC(=O)C(F)(F)F)CCCc1ccccc1)CCCc1ccccc1)C(F)(F)F"
classification = "F"

[[record]]
molecule = "O[C@@]12Cc3c([nH]c4ccccc34)[C@@H]3Oc4cccc5c4[C@@]31CCN(CC1CC1)[C@@H]2C5"
classification = "F"

[[record]]
molecule = "CCOC(=O)/C=C(\\C)c1ccc(Cl)cc1"
classification = "F"

[[record]]
molecule = "COC(=O)C1=C(C(=O)OC)C2(C)C=CC1O2 (centres undefined)"
classification = "F"

[[record]]
molecule = "Cc1ccc2ccccc2c1CSc1nc(N)nc2c1ncn2CC(C)C"
classification = "F"

[[record]]
molecule = "CN(c1ccc(Cl)cc1)S(=O)(=O)c1ccccc1"
classification = "F"

[[record]]
molecule = "CC1=C(C(=O)OCCc2ccc([N+](=O)[O-])cc2)C(c2cccc([N+](=O)[O-])c2)C(C(=O)OC(C)C)=C(C)N1 (centres undefined)"
classification = "F"

[[record]]
molecule = "CCNc1cnc2c(n1)c(=O)n(C)c(=O)n2C"
classification = "F"

[[record]]
molecule = "COC(=O)C1(NC(=O)C(C)NC(=O)C(CCCCN)NC(=O)C(CC(C)C)NC(C)=O)CCCC1 (centres undefined) (Ac-LKA[Ac5c]-OMe; configuration not given here)"
classification = "F"

[[record]]
molecule = "CCn1cnc2c(NC(C)=O)ncnc21"
classification = "F"

[[record]]
molecule = "COC(=O)[C@@]12CSC[C@]1(C(=O)OC)N[C@@H](c1ccccc1O)C2"
classification = "F"

[[record]]
molecule = "COc1ccc(-c2cc(=O)c3ccccc3[nH]2)c(OC)c1"
classification = "F"

[[record]]
molecule = "Cn1c2ccccc2c2c3c(c4c5ccccc5n(C)c4c21)C(=O)N(c1ccccc1)C3=O"
classification = "F"

[[record]]
molecule = "Cc1cn(C2CC(O)C(CO)C2C)c(=O)[nH]c1=O (centres undefined)"
classification = "F"

[[record]]
molecule = "O=S(=O)(N/N=C/c1ccc(/C=N/NS(=O)(=O)c2ccccc2)cc1)c1ccccc1"
classification = "F"

[[record]]
molecule = "O=C1Nc2ccccc2/C1=N/Nc1c(F)c(F)c(F)c(F)c1F"
classification = "F"

[[record]]
molecule = "C[C@H]1CN[C@@H]2[C@@H](C)[C@H]3[C@@H](C[C@H]4[C@@H]5CC[C@H]6C[C@@H](N)CC[C@]6(C)[C@H]5CC[C@]34C)O[C@@]2(O)C1"
classification = "F"

[[record]]
molecule = "Cc1ccc(NC(=O)C(=O)C2C(=O)C3=C(CC2(C)C)NC2C=CC=CC2S3)c(C)c1 (centres undefined)"
classification = "F"

[[record]]
molecule = "C=C(CCC(C)C1CCC2C3=C(C(=O)CC21C)C1(C)CCC(=O)[C@@H](C)C1CC3=O)C(C)C(=O)O (some centres undefined)"
classification = "F"

[[record]]
molecule = "Cc1noc(NC(=O)Nc2ccccc2F)c1C#N"
classification = "F"

[[record]]
molecule = "O=C(c1ccc([N+](=O)[O-])cc1)N1CCCC1"
classification = "F"

[[record]]
molecule = "Cc1cc(Nc2ccc(NS(C)(=O)=O)cc2)c2c(ccc3[nH]ccc32)n1"
classification = "F"

